Every entry's value here was drawn from PubChem BioAssay AID504848.

Experiment: Confirmation screen for delayed death inhibitors of the malarial parasite plastid, 96 hour incubation; also: potency is read from the fitted curve at half-maximal effect; nearly all actives have a fitted effect of over 60% in size
Settings: P. falciparum luciferase growth in erythrocytes; series mostly up to 28.7 µM
Excerpt: The goal of this screen is to discover new antimalarial compounds that act by inhibiting the development of the apicoplast in the malarial parasite Plasmodium falciparum. The biochemical processes that make this organelle essential for erythrocytic stage parasites are not well understood. […] Growth inhibition is detected by a decrease in luciferase activity. […]
Screen size: about 2,300 compounds; about 1,400 (61%) were called active. About 29% were inconclusive and are not listed. So high a share suggests a set chosen from earlier hits. The list shows a part of the results.
assay-endpoint: Potency

1) Fc1ccc(Nc2nc(N3CCOCC3)nc(N3CCOCC3)n2)cc1    12.6 µM (active)
2) Cc1ccc(C)c(C(=O)CN2C3=NCCCN3c3ccccc32)c1    5.62 µM (active)
3) CC1CN(C(=O)N2c3ccccc3Sc3ccccc32)CC(C)O1 (stereo unspecified)    10 µM (active)
4) CCOc1ccc2nc(C)cc(Nc3cccc([N+](=O)[O-])c3)c2c1    2 µM (active)
5) CC[C@@H](C(=O)[C@@H](C)[C@@H](O)[C@H](C)CCc1ccc(C)c(O)c1C(=O)O)[C@H]1O[C@](CC)([C@H]2CC[C@](O)(CC)[C@H](C)O2)C[C@@H]1C    0.631 µM (active)
6) O=C(CCN1C(=O)/C(=C/c2ccccc2Cl)SC1=S)N1CCOCC1    10 µM (active)
7) O=C(Nc1nc(-c2ccccn2)cs1)C1COc2ccccc2O1 (stereo unspecified)    6.31 µM (active)
8) O=C(CN1C2=NCCCN2c2ccccc21)c1ccc2c(c1)OCO2    7.08 µM (active)
9) C=C1C(=O)O[C@@H]2C[C@@H](C)[C@@H]3C=CC(=O)[C@@]3(C)[C@@H](OC(C)=O)[C@H]12    1.41 µM (active)
10) COc1cc(C(C)=O)ccc1OCC(O)CN1CCN(c2cc(C)cc(C)c2)CC1 (stereo unspecified)    14.1 µM (active)
11) COc1ccc(C)cc1NC(=O)C(Sc1nnc(Nc2cc(C)ccc2OC)s1)c1ccccc1 (stereo unspecified)    14.1 µM (active)
12) CCN1CCC(Nc2ccnc3cc(Cl)ccc23)CC1    0.158 µM (active)
13) CCCCN(C)C(=O)C1CCC(CNS(=O)(=O)c2ccc3c(c2)CC(C)N3C(=O)C2CC2)CC1 (stereo unspecified)    5.62 µM (active)
14) OC(CN1C2=NCCN2c2ccccc21)c1ccc2c(c1)OCO2 (stereo unspecified)    2.51 µM (active)
15) O=C(NNc1ccnc2cc(Cl)ccc12)C1CCCCC1    0.282 µM (active)
16) Cc1c(C#N)c(NC(=O)CCl)n(Cc2ccccc2)c1C    4.47 µM (active)
17) CCc1ccc(Nc2n[n+](-c3ccccc3)c(-c3cccc(Cl)c3Cl)s2)cc1    2.82 µM (active)
18) CCn1c2ccccc2c2c3ncc4cccn4c3ccc21    14.1 µM (active)
19) CN1CCN(C(=O)CCN2C(=O)/C(=C/c3cccc(Br)c3)SC2=S)CC1    3.98 µM (active)
20) O=C(Nc1nnc(Cc2ccc(F)cc2)s1)Nc1ccccc1F    12.6 µM (active)
21) Cc1ccc(/C=C/C(=O)NC(C)c2ccccc2)cc1 (stereo unspecified)    11.2 µM (active)
